The origin of these recorded values is patent US20080293916A1.

Give -log Kd for every item shown.
# system_name: T1, HLA-A24 molecule (product of the HLA-A*2402 gene) on C1R-A24 cells (human)
# T1 construct: MHC class I molecule on cells; Emptied by acid treatment (pH 3.3, 30 s), then reassociated with added purified beta2m and the test peptide; also called HLA-A*2402 molecule; human HLA-A24 molecule
# protocol_description: reassociation on acid-stripped C1R-A24 cells with added beta2m, mAb 17A12 staining, flow cytometry

For orientation, consider the following solved cases.
binder	val
YRIHTHGVF [HLA-A24-binding peptide of SEQ ID NO 3 (WT1 peptide, SEQ NAME 286)]	4.39 -log Kd (Kd in molar concentration)
ILCGAQYRI (also called ILOGAQYRI) [HLA-A24-binding peptide of SEQ ID NO 14 (WT1 peptide, SEQ NAME 280)]	5.9 -log Kd (Kd in molar concentration)
QYRIHTHGV [HLA-A24-binding peptide of SEQ ID NO 30 (WT1 peptide, SEQ NAME 285)]	5.62 -log Kd (Kd in molar concentration)

Okay, here is my list. What is -log Kd for each of these?
1. PPPPPHSFI [HLA-A24-binding peptide of SEQ ID NO 7 (WT1 peptide, SEQ NAME 64)]
2. ALLPAVPSL [HLA-A24-binding peptide of SEQ ID NO 2 (WT1 peptide, SEQ NAME 10)]
3. DFKDCERRF (Synthesised by the Fmoc solid-phase method, purity 95% or higher) [HLA-A24-binding peptide of SEQ ID NO 1 (WT1 peptide, SEQ NAME 356)]
4. NLYQMTSQL [HLA-A24-binding peptide of SEQ ID NO 29 (WT1 peptide, SEQ NAME 225)]
5. PPPPPPHSF [HLA-A24-binding peptide of SEQ ID NO 4 (WT1 peptide, SEQ NAME 63)]

Given back:
1: 4.4 -log Kd (Kd in molar concentration); 2: 9.16 -log Kd (Kd in molar concentration); 3: 4.4 -log Kd (Kd in molar concentration); 4: 4.38 -log Kd (Kd in molar concentration); 5: 4.4 -log Kd (Kd in molar concentration)
